System: Inter-leukin 2 (IL-2) production by activated Human Primary T Lymphocytes
Assay: Primary T cell assay: inhibition of IL-2 production by activated human primary CD4 positive T lymphocytes
Assay type: cell-based
Conditions: Homo sapiens, CD4 positive, Table 5; mean IC50 value; CD4 positive T cells activated with anti-CD3/anti-CD28, IL-2 by ELISA; read-out: IC50 (blocking IL-2 production)
pIC50: −log10 of the molar value.
pIC50 overview
measured_quantity: pIC50

>>> experimental_result("CCCCCCn1ccc(C)c(NC(=O)C(Cc2ccc(C(C)(C)C(=O)O)cc2)NC(=O)Cc2ccc(OC)cc2)c1=O (stereo not drawn)")
3.55
>>> experimental_result("Cc1ccn(Cc2ccc3c(c2)OCO3)c(=O)c1NC(=O)C(Cc1ccc(C(C)(C)C(=O)O)cc1)NC(=O)C(C)(C)c1ccc2ccccc2c1 (stereo not drawn)")
4.35
>>> experimental_result("COc1ccc(Cn2ccc(C)c(NC(=O)[C@H](Cc3ccc(C(C)(C)C(=O)O)cc3)NC(=O)C(C)(C)c3cccc4ccccc34)c2=O)cc1")
4.28

Data provenance: patent US6284768A
